All values here come from patent US20060142271A1.

tested on: colon cancer cell line SW480; assay: Cancer cell line colony survival assay, SW480; assay type: cell-based, human; settings: Homo sapiens, SW480, read-out: AA in Cancer Cell Lines IC50 (μM) SW480
quantity.measured: IC50 (µM)
Quick reminder: number only, in µM, skip the unit.

Exam item: // map CC1(C)CCC2=C(O1)c1ccccc1C(=O)C2=O [β-lapachone, reference compound] to recorded IC50 (system: colon cancer cell line SW480)
Marked response: 4

----------
system: colon cancer cell line DLD1; assay: Cancer cell line colony survival assay, DLD1; format: cell-based, human; conditions: Homo sapiens, DLD-1; colon cancer cell line DLD1, 4 h exposure, colonies after 10-15 days; read-out: AA in Cancer Cell Lines IC50 (μM) DLD1
quantity.measured: IC50 (µM)
Quick reminder: number only, in µM, skip the unit.

molecule: O=C(c1ccccc1)c1cc2cc3ccccc3cc2o1 [Compound 74a, Naphtho[2,3-b]furan-2-yl-phenylmethanone]
IC50 / µM: 7.6
--
molecule: COc1ccc(C(=O)c2cc3cc4ccccc4cc3o2)cc1OC [Compound 75a]
IC50 / µM: 14
--
molecule: COc1ccc(C(=O)c2cc3c(s2)C(=O)c2ccccc2C3=O)cc1 [Compound 62b]
IC50 / µM: 5.5
--
molecule: O=C(c1ccccc1)c1cc2c(s1)C(=O)c1ccccc1C2=O [Compound 64b]
IC50 / µM: 1.3
--
molecule: O=C(c1ccc([N+](=O)[O-])cc1)c1cc2c(s1)C(=O)c1ccccc1C2=O [Compound 66b]
IC50 / µM: 25

Exam item: Recorded IC50 for CC(=O)c1cc2c(o1)C(=O)c1ccccc1C2=O [Compound 6, 2-Acetyl-naphtho[2,3-b]furan4,9-dione] , please?
Marked response: 0.8

Exam item: Recorded IC50 for CC(=O)c1cc2c(s1)C(=O)c1ccccc1C2=O [Compound 63b] , please?
Marked response: 1
